Listed here are compounds together with their documented cytotoxicity at 10 µM.
assay: Toxicity liver stage against HepG2, at 10uM; assay type: cell-based; design: test concentration 10 uM, cell line HepG2-A16-CD81EGFP; conditions: human, HepG2-A16-CD81EGFP cells; read-out: INHIBITION
Answer with the value and then the unit.

Cc1nc(CN2CCCC(NCCOc3ccccc3C#N)C2)no1 (stereo unspecified)	-1.13%
Fc1ccc2c(c1)CCC2NCc1ccc(N2CCOCC2)cc1 (stereo unspecified)	-1.54%
CCC(OC)C(=O)N1CCc2nc(NC)nc(C(=O)N3CCCC3)c2C1 (stereo unspecified)	-18.3%

For Cc1nccn1C1CCCN(C(=O)c2ccc3nnc(C)n3c2)C1 (stereo unspecified) the compound record lists cytotoxicity at 10 µM as 2.01%

Given item "Cc1oc(C)c(C(=O)N2CCCN(Cc3cscn3)CC2)c1C" , the value recorded as its cytotoxicity at 10 µM is 6.88%

Reported cytotoxicity at 10 µM of "Cc1cc(C)c(CCNC(=O)CN2CCCN(C(N)=O)CC2)c(C)c1" : -0.819%

Per the record, COc1ccc(C(=O)N2CCOC3(CNCCOC3)C2)c(OC)n1 (stereo unspecified) has cytotoxicity at 10 µM of -8.2%
